Molecular target: LHRH receptors (Rattus norvegicus)
Sequence (P30969 1-327): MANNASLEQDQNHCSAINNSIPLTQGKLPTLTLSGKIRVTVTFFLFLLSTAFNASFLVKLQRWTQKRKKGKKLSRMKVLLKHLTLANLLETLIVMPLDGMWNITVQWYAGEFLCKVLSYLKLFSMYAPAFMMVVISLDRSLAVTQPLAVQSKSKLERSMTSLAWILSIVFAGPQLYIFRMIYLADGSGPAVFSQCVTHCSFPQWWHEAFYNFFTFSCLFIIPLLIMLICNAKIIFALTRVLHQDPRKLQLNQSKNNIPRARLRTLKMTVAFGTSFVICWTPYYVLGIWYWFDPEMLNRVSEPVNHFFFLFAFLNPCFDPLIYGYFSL
Assay: Radioligand receptor binding assay, rat pituitary membranes
Conditions: radioiodinated [D-Leu6-des Gly10]-LHRH ethyl amide 50 pM, 2 hours at 4° C., read-out: Receptor Binding pkI (converted)
Non-standard residues stand in square brackets, D forms with d. Residues, ends and D or L forms follow the SMILES beside them. *: point of attachment. dPhe(4-Cl) = N[C@H](Cc1ccc(Cl)cc1)C(=O)O; d1Nal = N[C@H](Cc1cccc2ccccc12)C(=O)O; d2Nal = N[C@H](Cc1ccc2ccccc2c1)C(=O)O; Lys(iPr) = CC(C)NCCCC[C@H](N)C(=O)O; NMeY = CN[C@@H](Cc1ccc(O)cc1)C(=O)O; d3Pal = N[C@H](Cc1cccnc1)C(=O)O; Nicotinoyl = O=C(c1cccnc1)*; Sar = CNCC(=O)O
Assignment: determine reported Ki for the given compounds.
Answers are plain numbers, in nM.

{"columns": ["Compound", "Tested Target", "Unit Of Measure", "Ki"],
 "data": [
  ["CC(=O)N[C@H](Cc1ccc2ccccc2c1)C(=O)N[C@H](Cc1ccc(Cl)cc1)C(=O)N[C@H](Cc1cccnc1)C(=O)N[C@@H](CO)C(=O)N(C)[C@@H](Cc1ccc(O)cc1)C(=O)N[C@H](CCCCNC(=O)c1cccnc1)C(=O)N[C@@H](CC(C)C)C(=O)N[C@@H](CCCCNC(C)C)C(=O)N1CCC[C@H]1C(=O)N[C@H](C)C(N)=O [Ex. 38] (Ac-[d2Nal][dPhe(4-Cl)][d3Pal]S[NMeY][dK](Nicotinoyl)L[Lys(iPr)]P[dA]-NH2)", "LHRH receptors (Rattus norvegicus)", "nM", 0.0316]
]}

Now, please, on to the next compound.
*Q* What does the data say about its Ki? Entry: CC(=O)N(C)CC(=O)N[C@H](Cc1ccc(Cl)cc1)C(=O)N[C@H](Cc1cccc2ccccc12)C(=O)N[C@@H](CO)C(=O)N(C)[C@@H](Cc1ccc(O)cc1)C(=O)N[C@H](CCCCNC(=O)c1cccnc1)C(=O)N[C@@H](CC(C)C)C(=O)N[C@@H](CCCNC(=N)N)C(=O)N1CCC[C@H]1C(=O)N[C@H](C)C(N)=O [Ex. 51] (Ac-[Sar][dPhe(4-Cl)][d1Nal]S[NMeY][dK](Nicotinoyl)LRP[dA]-NH2)
*A* 0.0269

---

Molecular target: LHRH receptors (Rattus norvegicus)
Sequence (P30969 1-327): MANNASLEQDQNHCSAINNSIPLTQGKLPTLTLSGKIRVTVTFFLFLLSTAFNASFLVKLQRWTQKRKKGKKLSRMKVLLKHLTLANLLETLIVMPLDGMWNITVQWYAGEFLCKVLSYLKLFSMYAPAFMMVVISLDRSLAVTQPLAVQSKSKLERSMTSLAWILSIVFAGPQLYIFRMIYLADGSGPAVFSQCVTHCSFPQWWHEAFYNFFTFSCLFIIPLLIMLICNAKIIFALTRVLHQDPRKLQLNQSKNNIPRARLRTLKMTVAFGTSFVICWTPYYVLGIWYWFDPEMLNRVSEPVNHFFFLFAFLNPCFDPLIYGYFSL
Experiment: Radioligand receptor binding assay, rat pituitary membranes
Conditions: radioiodinated [D-Leu6-des Gly10]-LHRH ethyl amide 50 pM, 2 hours at 4° C., read-out: Receptor Binding pkI (converted)
Starred links: 1 amine or outer side, 2 acyl side, 3 side chain; linkers in the order of their positions; H or OH if unused. Non-standard residues stand in square brackets, D forms with d. Residues, ends and D or L forms follow the SMILES beside them. Groups on a side chain read outwards from the residue. *: point of attachment. dPhe(4-Cl) = N[C@H](Cc1ccc(Cl)cc1)C(=O)O; 1Nal = N[C@@H](Cc1cccc2ccccc12)C(=O)O; d1Nal = N[C@H](Cc1cccc2ccccc12)C(=O)O; d2Nal = N[C@H](Cc1ccc2ccccc2c1)C(=O)O; Lys(iPr) = CC(C)NCCCC[C@H](N)C(=O)O; NMeY = CN[C@@H](Cc1ccc(O)cc1)C(=O)O; dBta = N[C@H](Cc1csc2ccccc12)C(=O)O; d3Pal = N[C@H](Cc1cccnc1)C(=O)O; Cha = N[C@@H](CC1CCCCC1)C(=O)O; Nicotinoyl = O=C(c1cccnc1)*; NMeS = CN[C@@H](CO)C(=O)O; Morpholide = C1CN(*)CCO1; CO = O=C([*:1])[*:2]; Sar = CNCC(=O)O
Outcome Measure: Ki (nM)
Answers are plain numbers, in nM.

Take a look at these entries with their results.
{"columns": ["Compound", "Experimental Result"],
 "data": [
  ["CCNC(=O)CC[C@H](NC(=O)NCC)C(=O)N[C@@H](Cc1c[nH]cn1)C(=O)N[C@@H](Cc1c[nH]c2ccccc12)C(=O)N(C)[C@@H](CO)C(=O)N[C@@H](Cc1ccc(O)cc1)C(=O)N[C@H](Cc1c[nH]c2ccccc12)C(=O)N[C@@H](CC(C)C)C(=O)N[C@@H](CCCNC(=N)N)C(=O)N1CCC[C@H]1C(=O)NCC", 1.05],
  ["CC(=O)N(C)CC(=O)N[C@H](Cc1ccc(Cl)cc1)C(=O)N[C@H](Cc1cccc2ccccc12)C(=O)N[C@@H](CO)C(=O)N(C)[C@@H](Cc1ccc(O)cc1)C(=O)N[C@H](CCCCN)C(=O)N[C@@H](CC(C)C)C(=O)N[C@@H](CCCNC(=N)N)C(=O)N1CCC[C@H]1C(=O)N[C@H](C)C(N)=O [Ex. 48] (Ac-[Sar][dPhe(4-Cl)][d1Nal]S[NMeY][dK]LRP[dA]-NH2)", 0.01],
  ["CC(=O)N(C)CC(=O)N[C@H](Cc1ccc(Cl)cc1)C(=O)N[C@H](Cc1csc2ccccc12)C(=O)N[C@@H](CO)C(=O)N(C)[C@@H](Cc1ccc(O)cc1)C(=O)N[C@H](CCCCNC(=O)c1cccnc1)C(=O)N[C@@H](CC(C)C)C(=O)N[C@@H](CCCCNC(C)C)C(=O)N1CCC[C@H]1C(=O)N[C@H](C)C(N)=O [Ex. 64] (Ac-[Sar][dPhe(4-Cl)][dBta]S[NMeY][dK](Nicotinoyl)L[Lys(iPr)]P[dA]-NH2)", 0.0102],
  ["CC(=O)N[C@H](Cc1ccc2ccccc2c1)C(=O)N[C@H](Cc1ccc(Cl)cc1)C(=O)N[C@H](Cc1cccnc1)C(=O)N[C@@H](CO)C(=O)N(C)[C@@H](Cc1ccc(O)cc1)C(=O)N[C@H](CCCCNC(=O)c1cccnc1)C(=O)N[C@@H](CC(C)C)C(=O)N[C@@H](CCCCNC(C)C)C(=O)N1CCC[C@H]1C(=O)N(C)CC(N)=O [Ex. 44] (Ac-[d2Nal][dPhe(4-Cl)][d3Pal]S[NMeY][dK](Nicotinoyl)L[Lys(iPr)]P[Sar]-NH2)", 0.0331],
  ["CC(=O)N[C@H](Cc1ccc(Cl)cc1)C(=O)N[C@H](Cc1ccc(Cl)cc1)C(=O)N[C@H](Cc1cccc2ccccc12)C(=O)N[C@@H](CO)C(=O)N(C)[C@@H](Cc1ccc(O)cc1)C(=O)N[C@H](CCCCN)C(=O)N[C@@H](CC1CCCCC1)C(=O)N[C@@H](CCCNC(=N)N)C(=O)N1CCC[C@H]1C(=O)N[C@H](C)C(N)=O [Ex. 47] (Ac-[dPhe(4-Cl)][dPhe(4-Cl)][d1Nal]S[NMeY][dK][Cha]RP[dA]-NH2)", 0.038],
  ["CC(=O)N[C@H](Cc1ccc2ccccc2c1)C(=O)N[C@H](Cc1ccc(Cl)cc1)C(=O)N[C@H](Cc1cccnc1)C(=O)N(C)[C@@H](CO)C(=O)N[C@@H](CCCCNC(=O)c1cccnc1)C(=O)N[C@H](CCCCNC(=O)c1cccnc1)C(=O)N[C@@H](CC(C)C)C(=O)N[C@@H](CCCCNC(C)C)C(=O)N1CCC[C@H]1C(=O)N[C@H](C)C(N)=O [Ex. 35] (Ac-[d2Nal][dPhe(4-Cl)][d3Pal][NMeS]K(Nicotinoyl)[dK](Nicotinoyl)L[Lys(iPr)]P[dA]-NH2)", 0.479],
  ["CC(=O)NCC(=O)N[C@H](Cc1ccc(Cl)cc1)C(=O)N[C@H](Cc1cccnc1)C(=O)N[C@@H](CO)C(=O)N(C)[C@@H](Cc1ccc(O)cc1)C(=O)N[C@H](CCCCNC(=O)c1cccnc1)C(=O)N[C@@H](CC(C)C)C(=O)N[C@@H](CCCCNC(C)C)C(=O)N1CCC[C@H]1C(=O)N[C@H](C)C(N)=O [Ex. 42] (Ac-G[dPhe(4-Cl)][d3Pal]S[NMeY][dK](Nicotinoyl)L[Lys(iPr)]P[dA]-NH2)", 0.603],
  ["CC(=O)N(C)CC(=O)N[C@H](Cc1ccc(Cl)cc1)C(=O)N[C@@H](Cc1cccc2ccccc12)C(=O)N[C@@H](CO)C(=O)N(C)[C@@H](Cc1ccc(O)cc1)C(=O)N[C@H](CCCCN)C(=O)N[C@@H](CC(C)C)C(=O)N[C@@H](CCCNC(=N)N)C(=O)N1CCC[C@H]1C(=O)N[C@H](C)C(N)=O [Ex. 52] (Ac-[Sar][dPhe(4-Cl)][1Nal]S[NMeY][dK]LRP[dA]-NH2)", 0.017]
]}

Hi, could you look up Ki for each item in my list?
1. CC(=O)N[C@H](Cc1ccc2ccccc2c1)C(=O)N[C@H](Cc1ccc(Cl)cc1)C(=O)N[C@H](Cc1cccnc1)C(=O)N[C@@H](CO)C(=O)N(C)[C@@H](Cc1ccc(O)cc1)C(=O)N[C@H](CCCCNC(=O)N1CCOCC1)C(=O)N[C@@H](CC(C)C)C(=O)N[C@@H](CCCCNC(C)C)C(=O)N1CCC[C@H]1C(=O)N[C@H](C)C(N)=O [Ex. 69] (Ac-[d2Nal][dPhe(4-Cl)][d3Pal]S[NMeY][dK]([CO-Morpholide])L[Lys(iPr)]P[dA]-NH2)
2. CC(=O)N[C@H](Cc1ccc2ccccc2c1)C(=O)N[C@H](Cc1ccc(Cl)cc1)C(=O)N[C@H](Cc1cccnc1)C(=O)N[C@@H](CO)C(=O)N(C)[C@@H](Cc1ccc(O)cc1)C(=O)N[C@H](CCCCNC(=O)c1cccnc1)C(=O)N[C@@H](CC1CCCCC1)C(=O)N[C@@H](CCCNC(=N)N)C(=O)N1CCC[C@H]1C(=O)N[C@H](C)C(N)=O [Ex. 66] (Ac-[d2Nal][dPhe(4-Cl)][d3Pal]S[NMeY][dK](Nicotinoyl)[Cha]RP[dA]-NH2)

*A*
1: 0.017; 2: 0.0141
